All values here come from patent US7547709B2.

- assay.name: Reaction with peroxyl radicals, oxygen consumption in inhibited autoxidation of styrene
- Assay type: physicochemical
- test.parameters: benzene, 323 K
property.measured: Rate constant for reaction with peroxyl radicals

Give Rate constant for reaction with peroxyl radicals for the following compound: Cc1cc(C)c(O)c(C)c1 [iv-b]
1.1 ± 0.1 × 10^5 M^−1 s^−1

Give Rate constant for reaction with peroxyl radicals for the following compound: Cc1nc(C)c(O)c(C)n1 [Example 2, 2,4,6-Trimethyl-5-pyrimidinol]
3.3 ± 0.4 × 10^4 M^−1 s^−1

Give Rate constant for reaction with peroxyl radicals for the following compound: Cc1cc(C(C)(C)C)c(O)c(C(C)(C)C)c1 [iv-c]
1.8 ± 0.3 × 10^4 M^−1 s^−1

Give Rate constant for reaction with peroxyl radicals for the following compound: Cc1nc(N(C)C)nc(C)c1O [Example 5]
8.6 ± 0.5 × 10^6f M^−1 s^−1

Give Rate constant for reaction with peroxyl radicals for the following compound: Cc1nc(C(C)(C)C)c(O)c(C(C)(C)C)n1 [Example 3, 2-Methyl-4,6-di-tert-butyl-5-pyrimidinol]
2.2 ± 0.3 × 10^4 M^−1 s^−1

* * *

- test.parameters: Table A
property.measured: O—H BDE: O—H bond dissociation enthalpy
Please state the value as a number alone, without comment.

Give O—H BDE: O—H bond dissociation enthalpy for the following molecule: Cc1nc(N(C)C)nc(C)c1O
78.2

Give O—H BDE: O—H bond dissociation enthalpy for the following molecule: Cc1nc(C(C)(C)C)c(O)c(C(C)(C)C)n1
84.1

Give O—H BDE: O—H bond dissociation enthalpy for the following molecule: COc1nc(C)c(O)c(C)n1
82.5

Give O—H BDE: O—H bond dissociation enthalpy for the following molecule: Cc1nc(C)c(O)c(C)n1
85.2
